Data origin: patent US20180237497A1

assay-system: T1, human IGF2^1-67 (mature insulin-like growth factor 2) (human, UniProt P01344 25-91, biotinylated (site not stated) where immobilised on the chip (Tables 1-4))
T1 construct: mature; also called mature IGF2; biotinylated IGF2
T1 sequence (P01344 25-91): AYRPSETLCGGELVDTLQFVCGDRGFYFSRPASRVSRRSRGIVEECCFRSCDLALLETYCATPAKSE
experiment: SPR kinetic, biotin-IGF2 on chip, pH 7.4
measurement-name: koff (s⁻¹)

Reference set, count: 5
domain 11^AB5 Q1569R P1597H (receptor, See m5) MKSNEHDDCQVTNPSTGHLFDLSSLSGRAGFTAAYAKGWGVYMSICGENENCPPGVGACFGRTRISVGKANKRLRYVDQVLQLVYKDGSHCPSKSGLSYKSVISFVCRPEAGPTNRPMLISLDKQTCTLFFSWHTPLACEQATECSV: 0.0058
domain 11^AB5 P1597Q (receptor, See m5) MKSNEHDDCQVTNPSTGHLFDLSSLSGRAGFTAAYAKGWGVYMSICGENENCPPGVGACFGQTRISVGKANKRLRYVDQVLQLVYKDGSQCPSKSGLSYKSVISFVCRPEAGPTNRPMLISLDKQTCTLFFSWHTPLACEQATECSV: 0.0203
domain 11^AB3 P1597K S1602H (receptor, See m5) MKSNEHDDCQVTNPSTGHLFDLSSLSGRAGFTAAYSKSGVVYMSICGENENCPPGVGACFGQTRISVGKANKRLRYVDQVLQLVYKDGSKCPSKHGLSYKSVISFVCRPEAGPTNRPMLISLDKQTCTLFFSWHTPLACEQATECSV: 0.0102
domain 11^AB5 Q1569R (receptor, See m5) MKSNEHDDCQVTNPSTGHLFDLSSLSGRAGFTAAYAKGWGVYMSICGENENCPPGVGACFGRTRISVGKANKRLRYVDQVLQLVYKDGSPCPSKSGLSYKSVISFVCRPEAGPTNRPMLISLDKQTCTLFFSWHTPLACEQATECSV: 0.0175
domain 11^AB3 Q1569R P1597K S1602H (receptor, See m5) MKSNEHDDCQVTNPSTGHLFDLSSLSGRAGFTAAYSKSGVVYMSICGENENCPPGVGACFGRTRISVGKANKRLRYVDQVLQLVYKDGSKCPSKHGLSYKSVISFVCRPEAGPTNRPMLISLDKQTCTLFFSWHTPLACEQATECSV: 0.016

1. domain 11^AB5 Q1569R P1597K (receptor, See m5) MKSNEHDDCQVTNPSTGHLFDLSSLSGRAGFTAAYAKGWGVYMSICGENENCPPGVGACFGRTRISVGKANKRLRYVDQVLQLVYKDGSKCPSKSGLSYKSVISFVCRPEAGPTNRPMLISLDKQTCTLFFSWHTPLACEQATECSV
2. domain 11^AB3 Q1569R P1597K (receptor, See m5) MKSNEHDDCQVTNPSTGHLFDLSSLSGRAGFTAAYSKSGVVYMSICGENENCPPGVGACFGRTRISVGKANKRLRYVDQVLQLVYKDGSKCPSKSGLSYKSVISFVCRPEAGPTNRPMLISLDKQTCTLFFSWHTPLACEQATECSV
Lab note: record which item had the higher koff, 1 or 2 . Could you answer with the label of the item you picked?
2

1. domain 11^AB5 P1597H (receptor, See m5) MKSNEHDDCQVTNPSTGHLFDLSSLSGRAGFTAAYAKGWGVYMSICGENENCPPGVGACFGQTRISVGKANKRLRYVDQVLQLVYKDGSHCPSKSGLSYKSVISFVCRPEAGPTNRPMLISLDKQTCTLFFSWHTPLACEQATECSV
2. domain 11^AB5 P1597S (receptor, See m5) MKSNEHDDCQVTNPSTGHLFDLSSLSGRAGFTAAYAKGWGVYMSICGENENCPPGVGACFGQTRISVGKANKRLRYVDQVLQLVYKDGSSCPSKSGLSYKSVISFVCRPEAGPTNRPMLISLDKQTCTLFFSWHTPLACEQATECSV
# argmax over koff for candidates 1 and 2 Give the label of your selection.
2
(2: 0.0193 s⁻¹, 1: 0.007 s⁻¹)
